Measured Fold change of individual entries
- EXPERIMENTAL SYSTEM: T1, human LAP-TGFB1 Fc fusion (human)
- T1 construct: also called human LAP-TGFβ1-Fc; human LAP-TGFβ-Fc isoform 1
- T1 sequence (chain, as listed by the source limits assumed): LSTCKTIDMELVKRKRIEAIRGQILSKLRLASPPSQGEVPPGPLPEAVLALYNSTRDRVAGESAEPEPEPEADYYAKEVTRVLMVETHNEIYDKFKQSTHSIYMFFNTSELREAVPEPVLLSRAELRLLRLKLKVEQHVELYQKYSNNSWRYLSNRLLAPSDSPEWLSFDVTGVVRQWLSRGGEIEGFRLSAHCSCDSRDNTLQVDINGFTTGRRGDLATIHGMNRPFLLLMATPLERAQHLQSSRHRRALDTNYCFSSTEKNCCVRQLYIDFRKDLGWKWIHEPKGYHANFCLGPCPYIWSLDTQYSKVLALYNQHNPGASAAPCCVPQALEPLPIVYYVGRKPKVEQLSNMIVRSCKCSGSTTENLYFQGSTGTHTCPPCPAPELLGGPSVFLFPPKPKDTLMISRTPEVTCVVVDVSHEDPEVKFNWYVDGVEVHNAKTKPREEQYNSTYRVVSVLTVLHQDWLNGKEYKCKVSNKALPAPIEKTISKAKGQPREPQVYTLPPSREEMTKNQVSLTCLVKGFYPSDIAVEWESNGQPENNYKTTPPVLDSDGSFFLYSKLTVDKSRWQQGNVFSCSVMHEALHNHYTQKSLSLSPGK
- RUN DESCRIPTION: BLI off-rate screen
Please respond with the number in fold and leave the unit unwritten.

Solved entries (count: 4):
VH D96Y (64BIT) (Fab, V domains shown) VH: EVQLVQSGAEVKKPGASVKVSCKASGYTFTSYWMHWVRQAPGQGLEWMGRIDPQSGGIKYAQKFQGRATLTVDTSTSTAYMELSRLRSDDTAVYYCARWYYGGYFDVWGQGTLVTVSS VL: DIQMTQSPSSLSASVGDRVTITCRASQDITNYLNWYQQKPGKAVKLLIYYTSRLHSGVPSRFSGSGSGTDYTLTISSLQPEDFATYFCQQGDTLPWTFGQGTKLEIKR = 0.6
VH G55Y (81BIT) (Fab, V domains shown) VH: EVQLVQSGAEVKKPGASVKVSCKASGYTFTSYWMHWVRQAPGQGLEWMGRIDPQSYGIKYAQKFQGRATLTVDTSTSTAYMELSRLRSDDTAVYYCARWDYGGYFDVWGQGTLVTVSS VL: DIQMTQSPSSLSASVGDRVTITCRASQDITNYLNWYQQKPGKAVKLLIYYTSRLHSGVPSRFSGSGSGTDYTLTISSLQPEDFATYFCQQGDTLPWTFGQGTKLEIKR = 1.2
VH I51Y (76BIT) (Fab, V domains shown) VH: EVQLVQSGAEVKKPGASVKVSCKASGYTFTSYWMHWVRQAPGQGLEWMGRYDPQSGGIKYAQKFQGRATLTVDTSTSTAYMELSRLRSDDTAVYYCARWDYGGYFDVWGQGTLVTVSS VL: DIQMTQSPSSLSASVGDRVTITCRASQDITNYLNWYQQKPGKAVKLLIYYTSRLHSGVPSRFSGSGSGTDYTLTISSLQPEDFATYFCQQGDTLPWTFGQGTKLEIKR = 1.1
VL L33Y (46BIT) (Fab, V domains shown) VH: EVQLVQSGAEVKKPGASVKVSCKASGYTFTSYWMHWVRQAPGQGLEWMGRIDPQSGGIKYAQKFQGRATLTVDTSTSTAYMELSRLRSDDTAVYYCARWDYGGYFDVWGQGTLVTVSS VL: DIQMTQSPSSLSASVGDRVTITCRASQDITNYYNWYQQKPGKAVKLLIYYTSRLHSGVPSRFSGSGSGTDYTLTISSLQPEDFATYFCQQGDTLPWTFGQGTKLEIKR = 1

Now consider the entry below.
Q: Find the recorded Fold change belonging to VL T51Y (48BIT) (Fab, V domains shown) VH: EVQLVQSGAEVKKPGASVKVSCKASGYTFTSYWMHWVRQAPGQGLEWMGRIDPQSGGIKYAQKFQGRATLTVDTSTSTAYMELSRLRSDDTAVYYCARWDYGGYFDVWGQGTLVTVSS VL: DIQMTQSPSSLSASVGDRVTITCRASQDITNYLNWYQQKPGKAVKLLIYYYSRLHSGVPSRFSGSGSGTDYTLTISSLQPEDFATYFCQQGDTLPWTFGQGTKLEIKR and report it.
A: 0.8

Data provenance: patent US20230272056A1
